The values you see were collected from patent US6110967A.

Entries and their log10(IC50)
# Target or system: Cathepsin L (Rattus norvegicus)
# Construct: extracted from a rat liver and completely purified; from tissue; host or cells: rat liver
# Sequence (P07154 114-288 limits assumed): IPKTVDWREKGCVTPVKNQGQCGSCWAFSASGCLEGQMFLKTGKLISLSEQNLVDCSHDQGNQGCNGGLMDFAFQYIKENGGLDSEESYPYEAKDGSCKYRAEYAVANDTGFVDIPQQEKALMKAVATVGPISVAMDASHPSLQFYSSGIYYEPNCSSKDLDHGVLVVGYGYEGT
# Sequence (P07154 291-334 limits assumed): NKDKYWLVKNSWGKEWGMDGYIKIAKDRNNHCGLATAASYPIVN
# Protocol description: Determination of inhibition activity against cathepsin L (substrate Z-Phe-Arg-MCA)
# Type: biochemical
# Measurement setup: cathepsin L purified from rat liver, pH 5.5, 30° C., 10 minutes
Where a name gives a salt, the structure may show the parent alone.
Please keep in mind that the values are log10 of IC50 expressed in µM.

Example cases with answers are listed next.
CN(C)C(=O)[C@H](Cc1ccccc1)NC(=O)[C@H]1O[C@@H]1C(=O)N(CCN)c1ccccc1 [Compound 11, hydrochloride]: 0.38
CN(C)C(=O)[C@H](Cc1ccccc1)NC(=O)[C@H]1O[C@@H]1C(=O)NCCNC(=O)OCc1ccccc1 [Compound 22]: -0.33
CN(C)C(=O)[C@H](Cc1ccccc1)NC(=O)[C@H]1O[C@@H]1C(=O)N1CCN(c2nccc(N)n2)CC1 [Compound 90]: -1.01
CN(C)C(=O)[C@H](Cc1ccccc1)NC(=O)[C@H]1O[C@@H]1C(=O)Nc1ccc(Oc2ccccc2)cc1 [Compound 48]: -1.22

Ask: # input compound: CN(C)C(=O)[C@H](Cc1ccccc1)NC(=O)[C@H]1O[C@@H]1C(=O)N1CCN(Cc2ccccc2)CC1 [Compound 9] ; wanted: its log10(IC50)
Result: -0.07

Ask: Now try CN(C)C(=O)[C@H](Cc1ccccc1)NC(=O)[C@H]1O[C@@H]1C(=O)N1CCN(C(=O)OC(C)(C)C)CC1 [Compound 15] .
Result: -0.66

Ask: Continue with CN(C)C(=O)[C@H](Cc1ccccc1)NC(=O)[C@H]1O[C@@H]1C(=O)NCc1ccc(N)cc1 [Compound 20, hydrochloride]
Result: -0.17

Ask: Same thing, different compound: CCc1ccc(NC(=O)[C@H]2O[C@@H]2C(=O)N[C@@H](Cc2ccccc2)C(=O)N(C)C)cc1 [Compound 29]
Result: -2.66

Ask: Try the compound CN(C)C(=O)[C@H](Cc1ccccc1)NC(=O)[C@H]1O[C@@H]1C(=O)NC1CCN(Cc2ccccc2)CC1 [Compound 18, hydrochloride]
Result: -0.54

Ask: Further, for CN(C)C(=O)[C@H](Cc1ccccc1)NC(=O)[C@H]1O[C@@H]1C(=O)NCCc1ccc(N)cc1 [Compound 73] ?
Result: -1.03

Ask: Subsequent entry: CN(C)C(=O)[C@H](Cc1ccccc1)NC(=O)[C@H]1O[C@@H]1C(=O)NCCc1csc(N)n1 [Compound 39, hydrochloride]
Result: -0.46

Ask: How about this compound: CC(C)(C)OC(=O)NCc1ccc(NC(=O)[C@H]2O[C@@H]2C(=O)N[C@@H](Cc2ccccc2)C(=O)NCCc2ccccc2)cc1 [Compound 12]
Result: -2.60

Ask: Can you handle CC(=N)Nc1ccc(CCNC(=O)[C@H]2O[C@@H]2C(=O)N[C@@H](Cc2ccccc2)C(=O)N(C)C)cc1 [Compound 86, hydrobromide] next?
Result: -1.34

====

# Target or system: Cathepsin B (Rattus norvegicus, UniProt P00787)
# Construct: extracted from a rat liver and completely purified; from tissue; host or cells: rat liver
# Sequence (P00787 80-126 limits assumed): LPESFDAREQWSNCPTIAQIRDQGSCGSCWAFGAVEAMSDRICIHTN
# Sequence (P00787 129-333 limits assumed): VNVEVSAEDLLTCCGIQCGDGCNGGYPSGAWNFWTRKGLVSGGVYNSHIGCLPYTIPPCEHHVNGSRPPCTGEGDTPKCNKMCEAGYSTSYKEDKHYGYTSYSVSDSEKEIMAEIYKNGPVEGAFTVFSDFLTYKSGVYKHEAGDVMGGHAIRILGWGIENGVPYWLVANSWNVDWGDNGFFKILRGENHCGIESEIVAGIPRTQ
# Protocol description: Determination of inhibition activity against cathepsin B (substrate Z-Arg-Arg-MCA)
# Assay type: biochemical
# Measurement setup: cathepsin B purified from rat liver, pH 5.5, 30° C., 10 minutes
Structures can show the parent of a compound that is named as a salt.
Result type: IC50

Cc1cc(NC(=O)[C@H]2O[C@@H]2C(=O)N[C@@H](Cc2ccccc2)C(=O)N(C)C)no1: > 10 µM

Ask: Give the measured IC50 of "CN(C)C(=O)[C@H](Cc1ccccc1)NC(=O)[C@H]1O[C@@H]1C(=O)NCCNc1ccc([N+](=O)[O-])cn1" .
Result: 85 µM

Ask: Lookup CC(=N)Nc1ccc(CCNC(=O)[C@H]2O[C@@H]2C(=O)N[C@@H](Cc2ccccc2)C(=O)N(C)C)cc1 [Compound 86, hydrobromide]
Result: > 10 µM

Ask: And for "CN(C)C(=O)[C@H](Cc1ccccc1)NC(=O)[C@H]1O[C@@H]1C(=O)NCCc1ccccn1" ?
Result: > 10 µM

Ask: Another molecule to look at: CN(C)C(=O)[C@H](Cc1ccccc1)NC(=O)[C@H]1O[C@@H]1C(=O)NCCc1csc(N)n1 [Compound 39, hydrochloride]
Result: > 100 µM

Ask: Could you do the same for "CN(C)C(=O)[C@H](Cc1ccccc1)NC(=O)[C@H]1O[C@@H]1C(=O)Nc1ccc(CNC(=O)c2ccccc2)cc1" , please?
Result: 77 µM

Ask: Thanks! And "CN(C)C(=O)[C@H](Cc1ccccc1)NC(=O)[C@H]1O[C@@H]1C(=O)NCCc1ccc(N)cn1" ?
Result: > 10 µM

====

# Target or system: Cathepsin B (Rattus norvegicus)
# Construct: extracted from a rat liver and completely purified; from tissue; host or cells: rat liver
# Protocol description: Determination of inhibition activity against cathepsin B (substrate Z-Arg-Arg-MCA)
# Assay type: biochemical
# Measurement setup: cathepsin B purified from rat liver, pH 5.5, 30° C., 10 minutes
Structures can show the parent of a compound that is named as a salt.
Reported IC50 by item:

Sample answers from the record:
CNC(=O)[C@H](Cc1ccccc1)NC(=O)[C@H]1O[C@@H]1C(=O)NCCc1ccccn1: > 100 µM
CN(C)C(=O)[C@H](Cc1ccccc1)NC(=O)[C@H]1O[C@@H]1C(=O)Nc1cccc(CN)c1 [Compound 6, hydrochloride]: > 100 µM
CN(C)C(=O)[C@H](Cc1ccccc1)NC(=O)[C@H]1O[C@@H]1C(=O)NCc1ccc(N)cc1 [Compound 20, hydrochloride]: > 100 µM
CN(C)C(=O)[C@H](Cc1ccccc1)NC(=O)[C@H]1O[C@@H]1C(=O)Nc1ccc(C(C)(C)C)cc1: > 100 µM
CCc1ccc(NC(=O)[C@H]2O[C@@H]2C(=O)N[C@@H](Cc2ccccc2)C(=O)N(C)C)cc1: > 100 µM

Now take the following compound into account.
Ask: // query IC50 value for entry "CN(C)C(=O)[C@H](Cc1ccccc1)NC(=O)[C@H]1O[C@@H]1C(=O)N1CCN(C(=O)OC(C)(C)C)CC1"
Result: > 100 µM

====

# Target or system: Cathepsin L (Rattus norvegicus)
# Construct: extracted from a rat liver and completely purified; from tissue; host or cells: rat liver
# Protocol description: Determination of inhibition activity against cathepsin L (substrate Z-Phe-Arg-MCA)
# Assay type: biochemical
# Measurement setup: cathepsin L purified from rat liver, pH 5.5, 30° C., 10 minutes
Where a name gives a salt, the structure may show the parent alone.
Result type: IC50 (nM)
Response body: numeric value in nM, unit text excluded.

// solved cases for IC50 follow
CN(C)C(=O)[C@H](Cc1ccccc1)NC(=O)[C@H]1O[C@@H]1C(=O)Nc1ccc(CNC(=O)c2ccccc2)cc1: 6
CN(C)C(=O)[C@H](Cc1ccccc1)NC(=O)[C@H]1O[C@@H]1C(=O)Nc1ccc(C(C)(C)C)cc1: 45
CN(C)C(=O)[C@H](Cc1ccccc1)NC(=O)[C@H]1O[C@@H]1C(=O)Nc1cccc(CN)c1 [Compound 6, hydrochloride]: 200
CN(C)C(=O)[C@H](Cc1ccccc1)NC(=O)[C@H]1O[C@@H]1C(=O)NCCNc1ccc([N+](=O)[O-])cn1: 34
CN(C)C(=O)[C@H](Cc1ccccc1)NC(=O)[C@H]1O[C@@H]1C(=O)NCCc1ccccn1: 47

Ask: So what does the record say about IC50 for "CN(C)C(=O)[C@H](Cc1ccccc1)NC(=O)[C@H]1O[C@@H]1C(=O)NCCc1ccc(N)cn1" ?
Result: 82

Ask: Can you check "Cc1cc(NC(=O)[C@H]2O[C@@H]2C(=O)N[C@@H](Cc2ccccc2)C(=O)N(C)C)no1" next?
Result: 33

====

Recorded IC50 by entry
# Target or system: Cathepsin B (Rattus norvegicus)
# Construct: extracted from a rat liver and completely purified; from tissue; host or cells: rat liver
# Protocol description: Determination of inhibition activity against cathepsin B (substrate Z-Arg-Arg-MCA)
# Format: biochemical
# Measurement setup: cathepsin B purified from rat liver, pH 5.5, 30° C., 10 minutes
Where a name gives a salt, the structure may show the parent alone.

Some compounds with recorded IC50:
CN(C)C(=O)[C@H](Cc1ccccc1)NC(=O)[C@H]1O[C@@H]1C(=O)Nc1ccc(Oc2ccccc2)cc1: 45 µM
CC(C)(C)OC(=O)NCc1ccc(NC(=O)[C@H]2O[C@@H]2C(=O)N[C@@H](Cc2ccccc2)C(=O)NCCc2ccccc2)cc1: > 10 µM

Ask: So what IC50 did CN(C)C(=O)[C@H](Cc1ccccc1)NC(=O)[C@H]1O[C@@H]1C(=O)Nc1ccc(CN)cc1 [Compound 8, hydrochloride] get with Cathepsin B (Rattus norvegicus)?
Result: > 100 µM

Ask: # repeat for "CN(C)C(=O)[C@H](Cc1ccccc1)NC(=O)[C@H]1O[C@@H]1C(=O)N1CCN(Cc2ccccc2)CC1"
Result: > 100 µM

Ask: Subsequent entry: CN(C)C(=O)[C@H](Cc1ccccc1)NC(=O)[C@H]1O[C@@H]1C(=O)NC1CCN(Cc2ccccc2)CC1 [Compound 18, hydrochloride]
Result: > 100 µM

Ask: What would you report for "CN(C)C(=O)[C@H](Cc1ccccc1)NC(=O)[C@H]1O[C@@H]1C(=O)NCCNC(=O)OCc1ccccc1" ?
Result: > 100 µM

Ask: Do the same for "CN(C)C(=O)[C@H](Cc1ccccc1)NC(=O)[C@H]1O[C@@H]1C(=O)N1CCN(c2nccc(N)n2)CC1" please
Result: > 10 µM
